experimental_system: human A2a adenosine receptor (Homo sapiens (Human), UniProt P29274)
Sequence (P29274 whole entry): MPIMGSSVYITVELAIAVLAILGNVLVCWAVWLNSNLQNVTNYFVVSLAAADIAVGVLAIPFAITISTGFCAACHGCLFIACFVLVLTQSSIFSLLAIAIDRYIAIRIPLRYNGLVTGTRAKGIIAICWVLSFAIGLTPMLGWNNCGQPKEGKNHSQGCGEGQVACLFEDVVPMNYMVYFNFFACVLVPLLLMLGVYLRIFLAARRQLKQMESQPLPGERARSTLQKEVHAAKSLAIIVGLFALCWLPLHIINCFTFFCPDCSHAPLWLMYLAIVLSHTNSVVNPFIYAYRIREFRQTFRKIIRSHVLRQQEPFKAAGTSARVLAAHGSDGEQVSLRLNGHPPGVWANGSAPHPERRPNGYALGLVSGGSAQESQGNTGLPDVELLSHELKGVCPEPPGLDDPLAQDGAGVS
experimental_protocol: A2a binding affinity using radioligand binding, Method (A)
details: Method (A): [3H]SCH58261 filtration binding
# if measured IC50 < 1 nM: class 1  # else: class 0

Look over these answered cases.
Cc1c(-c2cc(F)ccc2F)nc(N)c2nc(Cc3ccc(C(F)(F)F)cc3)nn12 [Example 7.4]	class 0
Cc1c(-c2ncco2)nc(N)n2nc(CN(Cc3ccc(C(F)(F)F)cc3)CC(F)F)nc12 [Example 12.3]	class 1
Cc1c(-c2ncco2)nc(N)n2nc(Cc3ccc(C(C)(C)O)cc3)nc12 [Example 6.5]	class 0

Ask: Check if IC50 falls below 1 nM for CC(C)n1nnc2c1CCN(CCc1nc3c(C(F)(F)F)c(-c4cccc(F)c4)nc(N)n3n1)C2 [Example 23.7] .
Result: class 1

Ask: Check if IC50 falls below 1 nM for Cc1c(-c2ncco2)nc(N)n2nc(CCN3CCn4c(cnc4C4CC4)C3)nc12 [Example 1.12] .
Result: class 0

###

experimental_system: human A2a adenosine receptor (Homo sapiens (Human))
experimental_protocol: A2a binding affinity using radioligand binding, Method (A)
details: Method (A): [3H]SCH58261 filtration binding
# if measured IC50 < 2 nM: true (1)  # else: false (0)

Cc1c(-c2cccc(C(F)(F)F)n2)nc(N)c2nc(Cc3ccccc3)nn12	false (0)
Nc1nc(-c2cc(F)ccc2F)cn2nc(Cc3ccccc3)nc12	false (0)

Ask: Check if IC50 falls below 2 nM for `Cc1c(-c2ccn(C)n2)nc(N)c2nc(Cc3ccccc3)nn12` .
Result: false (0)

###

experimental_system: human A2b adenosine receptor (Homo sapiens (Human), UniProt P29275)
Sequence (P29275 whole entry): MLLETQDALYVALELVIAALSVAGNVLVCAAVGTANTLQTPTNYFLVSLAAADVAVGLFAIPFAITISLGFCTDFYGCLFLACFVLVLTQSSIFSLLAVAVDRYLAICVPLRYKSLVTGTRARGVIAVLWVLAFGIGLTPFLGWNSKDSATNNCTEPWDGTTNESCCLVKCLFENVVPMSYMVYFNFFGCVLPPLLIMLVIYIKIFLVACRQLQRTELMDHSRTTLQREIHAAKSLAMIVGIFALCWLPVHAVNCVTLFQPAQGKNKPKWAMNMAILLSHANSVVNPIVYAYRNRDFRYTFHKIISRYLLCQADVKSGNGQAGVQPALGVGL
reported_metric: IC50 (nM)
# number only, unit nM dropped from output

Cc1c(-c2ncco2)nc(N)n2nc(CCS(=O)(=O)C3CC3)nc12	151
CC(C)n1nnc2c1CCN(CCc1nc3c(C(F)(F)F)c(-c4cccc(F)c4)nc(N)n3n1)C2	52.8
Cc1c(-c2ncco2)nc(N)n2nc(CCN3CCc4nn(C5CCCC5)cc4C3)nc12	301
CC(C)c1ncc2n1CCN(CCc1nc3cc(-c4ncco4)nc(N)n3n1)C2	905
Cc1c(F)cccc1-c1nc(N)c2nc(Cc3ccccc3)nn2c1C	1020
Cc1c(-c2ccc(F)c(Cl)c2)nc(N)c2nc(Cc3ccccc3)nn12	117
Cc1c(-c2cncc(Cl)c2)nc(N)c2nc(Cc3ccccc3)nn12	147
Cc1c(-c2cc(Cl)ccc2F)nc(N)c2nc(Cc3ccccc3)nn12	2.4
Cc1c(-c2ncco2)nc(N)n2nc(CCN3Cc4cnn(C)c4C3)nc12	688
Cc1c(-c2cccc(F)c2)nc(N)c2nc(CCN3CCn4c(cnc4C(C)C)C3)nn12	48.1

Ask: Query for human A2b adenosine receptor (Homo sapiens (Human), UniProt P29275): what IC50 does the record show for `CC(C)c1ncc2n1CCN(CCc1nc3cc(-c4cc(F)ccc4Cl)nc(N)n3n1)C2` ?
Result: 215

Ask: Query for human A2b adenosine receptor (Homo sapiens (Human), UniProt P29275): what IC50 does the record show for `Cc1c(-c2cc(F)ccc2F)nc(N)c2nc(Cc3cccc4c3ncn4CC(F)F)nn12` ?
Result: 31.8

Ask: Query for human A2b adenosine receptor (Homo sapiens (Human), UniProt P29275): what IC50 does the record show for `Cc1c(-c2ncco2)nc(N)n2nc(CNCc3ccc(C(F)(F)F)cn3)nc12` ?
Result: 330

Ask: Query for human A2b adenosine receptor (Homo sapiens (Human), UniProt P29275): what IC50 does the record show for `CCOC(=O)c1cnn(CCc2nc3c(C)c(-c4ncco4)nc(N)n3n2)c1` ?
Result: 9670

Ask: Query for human A2b adenosine receptor (Homo sapiens (Human), UniProt P29275): what IC50 does the record show for `Cc1c(-c2cccc(F)c2F)nc(N)c2nc(Cc3ccccc3)nn12` ?
Result: 39.4

Ask: Query for human A2b adenosine receptor (Homo sapiens (Human), UniProt P29275): what IC50 does the record show for `Cc1c(-c2ncco2)nc(N)c2nc(Cc3cccc4c3ncn4CC(F)F)nn12` ?
Result: 6.5

Ask: Query for human A2b adenosine receptor (Homo sapiens (Human), UniProt P29275): what IC50 does the record show for `Cc1c(-c2ncco2)nc(N)n2nc(CNCc3ccc(C(F)(F)F)cc3)nc12` ?
Result: 48.4

Ask: Query for human A2b adenosine receptor (Homo sapiens (Human), UniProt P29275): what IC50 does the record show for `COc1c(F)cc(F)cc1-c1cc2nc(CCN3CCn4c(cnc4C(C)C)C3)nn2c(N)n1` ?
Result: 248

Ask: Query for human A2b adenosine receptor (Homo sapiens (Human), UniProt P29275): what IC50 does the record show for `Cc1c(-c2ncco2)nc(N)n2nc(Cc3ccc4c(c3)ncn4CC(F)F)nc12` ?
Result: 7.6

Ask: Query for human A2b adenosine receptor (Homo sapiens (Human), UniProt P29275): what IC50 does the record show for `Cc1c(-c2ncco2)nc(N)n2nc(CN(Cc3ccc(C(C)(C)O)cc3)CC(F)F)nc12` ?
Result: 489

Ask: Query for human A2b adenosine receptor (Homo sapiens (Human), UniProt P29275): what IC50 does the record show for `Cc1c(-c2ncco2)nc(N)n2nc(Cc3ccc(C4(O)CCC4)cc3)nc12` ?
Result: 10.7

Ask: Query for human A2b adenosine receptor (Homo sapiens (Human), UniProt P29275): what IC50 does the record show for `Cc1c(-c2ncco2)nc(N)n2nc(CCN3CCc4c(nnn4CC(C)(C)O)C3)nc12` ?
Result: 694

Ask: Query for human A2b adenosine receptor (Homo sapiens (Human), UniProt P29275): what IC50 does the record show for `Cc1c(-c2cccc(F)c2)nc(N)n2nc(CCS(=O)(=O)C3CC3)nc12` ?
Result: 453

Ask: Query for human A2b adenosine receptor (Homo sapiens (Human), UniProt P29275): what IC50 does the record show for `Cc1c(-c2ncco2)nc(N)n2nc(CCN3CCCC(F)(F)C3)nc12` ?
Result: 1100

Ask: Query for human A2b adenosine receptor (Homo sapiens (Human), UniProt P29275): what IC50 does the record show for `Cc1c(-c2ncco2)nc(N)n2nc(Cc3ccc(C(C)(C)O)cc3)nc12` ?
Result: 5

Ask: Query for human A2b adenosine receptor (Homo sapiens (Human), UniProt P29275): what IC50 does the record show for `CC(C)c1ncc2n1CCN(CCc1nc3cc(-c4cc(F)ccc4O)nc(N)n3n1)C2` ?
Result: 400

Ask: Query for human A2b adenosine receptor (Homo sapiens (Human), UniProt P29275): what IC50 does the record show for `Cc1c(-c2ncco2)nc(N)n2nc(CCN3CCc4c(nnn4CC(F)(F)F)C3)nc12` ?
Result: 35.2
